- study_target: UniProtKB P42338
- test_method_notes: PI3-Kinase alpha/beta Inhibition
pIC50: −log10 of the molar value.
measurement_kind: pIC50

> print(dat)
                                   compound      study.target  recorded.result
1  Cc1cc(NCc2ccc(Cl)cc2)c2nc(N3CCOCC3)cc(=O)n2c1  UniProtKB P42338             6.00
2  COc1cccc(COc2cccn3c(=O)cc(N4CCOCC4)nc23)c1  UniProtKB P42338             6.00
3  Cc1cc(C2CCN(C)C2=O)c2nc(N3CCOCC3)cc(=O)n2c1 (stereo unspecified)  UniProtKB P42338             4.70
4  Cc1cc(-c2ccccc2C(F)(F)F)c2nc(N3CCOCC3)cc(=O)n2c1  UniProtKB P42338             5.70
5  Cc1ccc(Oc2cc(C)cn3c(=O)cc(N4CCOCC4)nc23)cc1  UniProtKB P42338             6.00
6  Cc1cc(Nc2ccc(F)cc2C)c2nc(N3CCOCC3)cc(=O)n2c1  UniProtKB P42338             6.70
7  Cc1cc(Nc2ccc(O)cc2C)c2nc(N3CCOCC3)cc(=O)n2c1  UniProtKB P42338             7.00
8  O=c1cc(N2CCOCC2)[nH]c2c(Oc3ccccc3)cccc12  UniProtKB P42338             7.00

I. Cc1cc(Oc2cccn3c(=O)cc(N4CCOCC4)nc23)ccc1F
II. O=c1cc(N2CCOCC2)[nH]c2c(Oc3ccccc3F)cccc12
For the pair I and II , which member has the lower pIC50 number? The response must carry the label of the picked entry.
I

1. Cc1cc(CCc2ccncc2)c2nc(N3CCOCC3)cc(=O)n2c1
2. O=c1cc(N2CCOCC2)oc2cc(/C=C/c3ccccc3)ccc12
Decide: 1 or 2 , by lowest recorded pIC50. Please indicate the selected item by its label.
2
(2: 5.00, 1: 6.00)

P. Cc1cc(Cl)ccc1Oc1cccc2c(=O)cc(N3CCOCC3)[nH]c12
Q. Cc1cc(NCc2ccccn2)c2nc(N3CCOCC3)cc(=O)n2c1
R. Cc1cc(CNc2ccccc2)c2nc(N3CCOCC3)cc(=O)n2c1
Provide the items ranked by increasing pIC50. Returns: the labels listed in the requested order.
P, Q, R
(P: 6.00, Q: 6.30, R: 7.30)
